Study the reported IC50 values for PIP4K2A (Homo sapiens, UniProt P48426) given below; they originate from different publications.

1) COc1nc(Nc2cncc(OCCN3CCC(F)(F)C3)c2)ncc1-c1ccc(-c2nnccc2C)cc1; 0.01 to 0.1 µM
2) CN(C)C(=O)c1ccc(-c2cc(-c3ccnc(C4(C#N)CC4)c3)cnc2N)nc1; 0.1 to 1 µM
3) CN(CC1CCNCC1)C(=O)c1ccc(-c2cncc(-c3ccncc3)c2)cc1; > 5 µM
4) CN(C)C(=O)c1cnc2c(c1)c(-c1cncc(-c3ccc(N4CCCC4=O)cc3)c1)cn2C; 0.005 to 0.1 µM
5) Cn1cc(-c2ccc(N)nc2)c2cc(-c3cncc(-c4ccc(N5CCCC5=O)cc4)c3)cnc21; 0.1 to 1 µM
6) O=C(Nc1nccc(-c2cncc(-c3ccc(N4CCCC4=O)cc3)c2)n1)C1CCC1; 0.1 to 1 µM
7) O=C(NCc1ccccn1)c1cc2c(-c3cncc(-c4ccc(N5CCCC5=O)cc4)c3)ccnc2[nH]1; 0.1 to 1 µM
8) CC(C)Cn1cnnc1-c1ccc(-c2cncc(-c3ccnc4[nH]c(C(=O)NCCc5ccncc5)cc34)c2)cc1; 1 to 2.5 µM

Using the record for COc1ncc(-c2cncc(-c3ccc(N4CCCC4=O)cc3)c2)c2cn(C)nc12 , report its IC50.
0.1 to 1 µM

I'd like to know its IC50. The compound in question is CN1CCn2c(cc3c(-c4cncc(-c5ccc(C(=O)N6CCC(C)(C)CC6)cc5)c4)ccnc32)C1=O
0.1 to 1 µM

Given the compound Cc1cc(S(N)(=O)=O)ccc1Nc1ncc(Cl)c(-c2cccc(-c3ccccc3)c2)n1 , what is its reported IC50?
> 10 µM

Bench note: what IC50 did O=C(c1cc2c(-c3cncc(-c4ccc(N5CCCC5=O)cc4)c3)ccnc2[nH]1)N1CCOCC1 show?
0.1 to 1 µM

IC50 lookup needed for CC(C)CNC(=O)c1cc2c(-c3cnc(N)c(-c4ccc(C(=O)N(C)C)cn4)c3)ccnc2[nH]1 , thanks.
0.1 to 1 µM

What measured IC50 goes with Nc1ncc(-c2cnc3ncc(-c4cncc(-c5ccc(N6CCCC6=O)cc5)c4)cn23)cn1 ?
0.1 to 1 µM

Recorded IC50 of CC(=O)OC(C)C(=O)N1CCOc2ncc(Nc3ncc4c(n3)C(C)(C)Oc3cc(-n5nncc5C)ccc3-4)cc21 (stereo not shown) , please.
≤ 0.001 µM

Endpoint output: IC50 of CC(C)CNC(=O)c1cc2c(-c3cncc(-c4ccc(N5CCCC5=O)cc4)c3)ccnc2[nH]1 . Value?
0.1 to 1 µM

---

Multiple publications report IC50 for PIP4K2A (Homo sapiens); what follows is a combined list.

1. CCN(CC)CCN(C)C(=O)N1CCOc2ncc(Nc3ncc(-c4ccc(N5C(=O)CC[C@H]5C)cc4)cn3)cc21; 0.1 to 1 µM
2. CN(C)C(=O)c1cnc2n[nH]c(-c3cncc(-c4ccc(N5CCCC5=O)cc4)c3)c2c1; 0.005 to 0.1 µM
3. CCN(CC)CCN(C)c1cncc(Nc2ncc3c(n2)C(C)(C)Oc2cc(-n4nncc4C)ccc2-3)c1; 0.001 to 0.01 µM
4. CC(C)c1[nH]c2ncc(C(=O)N(C)C)cc2c1-c1cncc(-c2ccc(N3CCCC3=O)cc2)c1; 0.1 to 1 µM

Could you tell me which IC50 is on file for COC(C)(C)c1cnc2c(c1)c(-c1cncc(-c3ccc(N4CCCC4=O)cc3)c1)cn2C ?
< 5 µM

Report IC50 for O=C(COc1cccc2c1C(=O)N(C1CCC(=O)NC1=O)C2=O)NCCOCCOCCOCCNC(=O)c1cc2c(-c3cncc(-c4ccc(N5CCCC5=O)cc4)c3)ccnc2[nH]1 (stereo not shown) please.
1 to 2.5 µM

For CC(=O)N(C)S(=O)(=O)c1ccc(Nc2ncc(Cl)c(-c3cccc(-c4ccccc4)c3)n2)c(C)c1 , what is its reported IC50?
8.76 µM

---

Published IC50 for PIP4K2A (Homo sapiens), assembled from different documents, is shown next.

Here is how some molecules turned out for IC50.
1) CN1CCn2c(cc3c(-c4cncc(-c5ccc(C(=O)N6CCCC6)cc5)c4)ccnc32)C1=O; 0.1 to 1 µM
2) CNC(=O)c1cc2c(-c3cncc(-c4ccc(N5CCCC5=O)cc4)c3)ccnc2o1; 0.005 to 0.1 µM
3) CN(c1nc(Nc2cnc3c(c2)N2C(=O)CC[C@H]2CO3)ncc1-c1ccc(N2CCCC2=O)cc1)[C@H]1CCOC1; ≤ 0.001 µM
4) CN(C)C(=O)c1ccc(-c2cncc(-c3c[nH]c4ncc(Cl)cc34)c2)cc1; 0.1 to 1 µM
5) Nc1ncc(-c2ccncc2)cc1-c1ccc(N2CCCC2=O)cc1; 0.1 to 1 µM
6) CC(=O)OC1(C(=O)N2CCOc3ncc(Nc4ncc5c(n4)C(C)(C)Oc4cc(-n6nncc6C)ccc4-5)cc32)CC1; ≤ 0.001 µM

Requested read-out IC50, target or system PIP4K2A (Homo sapiens), entry Cn1ncc2c(-c3cncc(-c4ccc(N5CCCC5=O)cc4)c3)cn(CC#N)c(=O)c21
0.1 to 1 µM

Request - read-out IC50 | tested on PIP4K2A (Homo sapiens) | molecule COC(=O)c1cc2c(-c3cncc(-c4ccc(N5CCCC5=O)cc4)c3)ccnc2[nH]1
0.005 to 0.1 µM
